Below, each entry is listed with its recorded pest or weed control at 280 g/ha.
test system: Abutilon theophrasti (ABUTH), velvetleaf; experiment: Postemergence herbicide evaluation, growth of Abutilon theophrasti (ABUTH); format: in vivo; details: Abutilon theophrasti, post-emergence, 504 h, read-out: AVE. ABUTH
MEASUREMENT_KIND: pest or weed control at 280 g/ha (%)

compound=O=C(COc1ccc(Cl)cc1Cl)OCCOCCOCCOCCOC(=O)COc1ccc(Cl)cc1Cl reported_value=92
compound="O=C(COc1ccc(Cl)cc1Cl)OCc1ccccc1 [Compound E4, Benzyl 2-(2,4-dichlorophenoxy)acetate]" reported_value=99
compound=O=C(COc1ccc(Cl)cc1Cl)OCOC(=O)c1ccccc1 reported_value=90
compound=O=C(COc1ccc(Cl)cc1Cl)OCCCCCOC(=O)COc1ccc(Cl)cc1Cl reported_value=97

* * *

system: Ambrosia artemisiifolia (AMBEL), common ragweed; assay: Postemergence herbicide evaluation, growth of Ambrosia artemisiifolia (AMBEL); assay type: in vivo; conditions: Ambrosia artemisiifolia, post-emergence, 168 h, 560 g ae/ha, 7 DAA, percent reduction in plant size relative to untreated control; read-out: AVE. AMBEL
Tag: y if measured pest or weed control at 560 g/ha is not below 80%, n if it is.

given_smiles=CCOC(=O)C(=NOC(=O)COc1ccc(Cl)cc1Cl)C(=O)OCC target_entity="Ambrosia artemisiifolia (AMBEL), common ragweed" cat=n
given_smiles=N/C(=N\OC(=O)COc1ccc(Cl)cc1Cl)c1ccc(/C(N)=N/OC(=O)COc2ccc(Cl)cc2Cl)cc1 target_entity="Ambrosia artemisiifolia (AMBEL), common ragweed" cat=n
given_smiles=CCO/C(CC)=N\OC(=O)COc1ccc(Cl)cc1Cl target_entity="Ambrosia artemisiifolia (AMBEL), common ragweed" cat=y
given_smiles=O=C(COc1ccc(Cl)cc1Cl)NNC(=O)c1ccccc1 target_entity="Ambrosia artemisiifolia (AMBEL), common ragweed" cat=y
given_smiles=Cn1c(O)c(C(=O)COc2ccc(Cl)cc2Cl)c2ccccc21 target_entity="Ambrosia artemisiifolia (AMBEL), common ragweed" cat=n

* * *

tested on: weeds ABUTH, AMATA, AMBEL, CHEAL, ERICA; experiment: Postemergence herbicide evaluation, overall average % weed control (ABUTH, AMATA, AMBEL, CHEAL, ERICA); type: in vivo; settings: post-emergence, 336 h, 560 g ae/ha, 14 DAA; read-out: Overall Ave % Weed Control
Below, each entry is listed with its recorded pest or weed control at 560 g/ha.
MEASUREMENT_KIND: pest or weed control at 560 g/ha (%)

compound="O=C(COc1ccc(Cl)cc1Cl)Nc1ccon1 [Compound D2]" target_entity="weeds ABUTH, AMATA, AMBEL, CHEAL, ERICA" reported_value=92
compound="C/C(=N\\OC(=O)COc1ccc(Cl)cc1Cl)c1ccccc1 [Compound A1]" target_entity="weeds ABUTH, AMATA, AMBEL, CHEAL, ERICA" reported_value=92
compound="N/C(=N\\OC(=O)COc1ccc(Cl)cc1Cl)c1ccccc1 [Compound A3]" target_entity="weeds ABUTH, AMATA, AMBEL, CHEAL, ERICA" reported_value=85
compound="O=C(COc1ccc(Cl)cc1Cl)O/N=C/c1ccncc1 [Compound A30]" target_entity="weeds ABUTH, AMATA, AMBEL, CHEAL, ERICA" reported_value=95.5
compound="O=C(COc1ccc(Cl)cc1Cl)Oc1ncc(Cl)cn1 [Compound E13]" target_entity="weeds ABUTH, AMATA, AMBEL, CHEAL, ERICA" reported_value=95.2
compound="Cc1nccc(NC(=O)COc2ccc(Cl)cc2Cl)c1C [Compound D26]" target_entity="weeds ABUTH, AMATA, AMBEL, CHEAL, ERICA" reported_value=83
compound="O=C(COc1ccc(Cl)cc1Cl)Oc1cccnn1 [Compound E2]" target_entity="weeds ABUTH, AMATA, AMBEL, CHEAL, ERICA" reported_value=89
compound="COc1ccc(/C=N/OC(=O)COc2ccc(Cl)cc2Cl)cc1 [Compound A31]" target_entity="weeds ABUTH, AMATA, AMBEL, CHEAL, ERICA" reported_value=83
compound="O=C(COc1ccc(Cl)cc1Cl)O/N=C/c1ccccn1 [Compound A32]" target_entity="weeds ABUTH, AMATA, AMBEL, CHEAL, ERICA" reported_value=92.6
compound="O=C(COc1ccc(Cl)cc1Cl)Nc1cc[nH]n1 [Compound D21]" target_entity="weeds ABUTH, AMATA, AMBEL, CHEAL, ERICA" reported_value=86.5
compound="O=C(COc1ccc(Cl)cc1Cl)O/N=C/c1ccccc1 [Compound A2]" target_entity="weeds ABUTH, AMATA, AMBEL, CHEAL, ERICA" reported_value=90
compound="O=C(COc1ccc(Cl)cc1Cl)Nc1nccs1 [Compound D24]" target_entity="weeds ABUTH, AMATA, AMBEL, CHEAL, ERICA" reported_value=84.5
compound="C/C(=N\\OC(=O)COc1ccc(Cl)cc1Cl)c1ccccc1Cl [Compound A24]" target_entity="weeds ABUTH, AMATA, AMBEL, CHEAL, ERICA" reported_value=83.8
compound="O=C(COc1ccc(Cl)cc1Cl)Oc1cncnc1 [Compound E14]" target_entity="weeds ABUTH, AMATA, AMBEL, CHEAL, ERICA" reported_value=92.7

* * *

system: Chenopodium album (CHEAL), common lambsquarters; assay: Postemergence herbicide evaluation, growth of Chenopodium album (CHEAL); assay type: in vivo; details: Chenopodium album, post-emergence, 168 h, 560 g ae/ha, 7 DAA, percent reduction in plant size relative to untreated control; read-out: Ave. CHEAL
MEASUREMENT_KIND: pest or weed control at 560 g/ha (%)

given_smiles=O=C(COc1ccc(Cl)cc1Cl)NNC(=O)c1ccccc1 unit_abbrev=% reported_value=65
given_smiles=CN(OC(=O)COc1ccc(Cl)cc1Cl)C(=O)c1ccccc1 unit_abbrev=% reported_value=68
given_smiles=CCO/C(CC)=N\OC(=O)COc1ccc(Cl)cc1Cl unit_abbrev=% reported_value=65

* * *

test system: Chenopodium album (CHEAL), common lambsquarters; experiment: Postemergence herbicide evaluation, growth of Chenopodium album (CHEAL); format: in vivo; details: Chenopodium album, post-emergence, 504 h, 560 g ae/ha, 21 DAA, percent reduction in plant size relative to untreated control; read-out: Ave. CHEAL
Below, each entry is listed with its recorded pest or weed control at 560 g/ha.
MEASUREMENT_KIND: pest or weed control at 560 g/ha (%)

compound="C/C(N)=N/OC(=O)COc1ccc(Cl)cc1Cl [Compound A12]" unit_abbrev=% reported_value=80
compound="N/C(=N\\OC(=O)COc1ccc(Cl)cc1Cl)c1ccc(/C(N)=N/OC(=O)COc2ccc(Cl)cc2Cl)cc1 [Compound B5]" unit_abbrev=% reported_value=13
compound="Cn1c(O)c(C(=O)COc2ccc(Cl)cc2Cl)c2ccccc21 [Compound C1]" unit_abbrev=% reported_value=0
compound="Cc1ccc(S(=O)(=O)NC(=O)COc2ccc(Cl)cc2Cl)cc1 [Compound D5]" unit_abbrev=% reported_value=68
compound="O=C(COc1ccc(Cl)cc1Cl)ON1C(=O)c2ccccc2C1=O [Compound A15]" unit_abbrev=% reported_value=75
compound="CC(=O)/C(C)=N/OC(=O)COc1ccc(Cl)cc1Cl [Compound A8]" unit_abbrev=% reported_value=80
compound="O=C(COc1ccc(Cl)cc1Cl)NOc1ccccc1 [Compound D7]" unit_abbrev=% reported_value=78
compound="O=C(COc1ccc(Cl)cc1Cl)NOCc1ccccc1 [Compound D8]" unit_abbrev=% reported_value=97
compound="CCO/C(CC)=N\\OC(=O)COc1ccc(Cl)cc1Cl [Compound A9]" unit_abbrev=% reported_value=75
compound="N/C(=N\\OC(=O)COc1ccc(Cl)cc1Cl)c1ccco1 [Compound A5]" unit_abbrev=% reported_value=65
compound="O=C(COc1ccc(Cl)cc1Cl)NNC(=O)c1ccccc1 [Compound D10]" unit_abbrev=% reported_value=85
compound="Cc1cc(OC(=O)COc2ccc(Cl)cc2Cl)n(C)n1 [Compound E6]" unit_abbrev=% reported_value=90
compound="CN(OC(=O)COc1ccc(Cl)cc1Cl)C(=O)c1ccccc1 [Compound A16]" unit_abbrev=% reported_value=95
compound="C/C(C/C(C)=N/OC(=O)COc1ccc(Cl)cc1Cl)=N\\OC(=O)COc1ccc(Cl)cc1Cl [Compound B6]" unit_abbrev=% reported_value=75

* * *

tested on: Chenopodium album (CHEAL), common lambsquarters; assay: Postemergence herbicide evaluation, growth of Chenopodium album (CHEAL); type: in vivo; settings: Chenopodium album, post-emergence, 168 h, 280 g ae/ha, 7 DAA, percent reduction in plant size relative to untreated control; read-out: Ave. CHEAL
MEASUREMENT_KIND: pest or weed control at 280 g/ha (%)

compound="C/C(N)=N/OC(=O)COc1ccc(Cl)cc1Cl [Compound A12]" reported_value=68
compound="O=C(COc1ccc(Cl)cc1Cl)ON(Cc1ccccc1)Cc1ccccc1 [Compound A14]" reported_value=60
compound="Cn1c(O)c(C(=O)COc2ccc(Cl)cc2Cl)c2ccccc21 [Compound C1]" reported_value=68
compound="O=C(COc1ccc(Cl)cc1Cl)NOCc1ccccc1 [Compound D8]" reported_value=63
compound="C/C(C/C(C)=N/OC(=O)COc1ccc(Cl)cc1Cl)=N\\OC(=O)COc1ccc(Cl)cc1Cl [Compound B6]" reported_value=70
compound="O=C(COc1ccc(Cl)cc1Cl)NOc1ccccc1 [Compound D7]" reported_value=65
compound="CCOC(=O)C(=NOC(=O)COc1ccc(Cl)cc1Cl)C(=O)OCC [Compound A7]" reported_value=68

meta.source: patent US20260042731A1
